Provenance of the data: PubChem BioAssay AID732

- Test system: in vivo angiogenesis, blood vessel count
- assay procedure: reduction of blood vessel formation in vivo – HTS, in vivo study (AID 732);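 also: zebrafish embryos dosed at one day post fertilization; 0% = reference inhibitor and 100% = plate mean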
- condition context: active compounds read low;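 tested at 30 µM in the well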
Listing: vessel count % control of selected molecules
Give a bare numeral; the unit % is implied.

NC(C(=O)O)c1cc(=O)[nH]o1 (configuration not stated)	134
N#Cc1c(-c2ccccc2)no[n+]1[O-]	120
Nc1ncnc2c1nc(Sc1ccc(Cl)cc1)n2C1OC2COP(=O)(O)O[C@@H]2[C@@H]1O (some centres not stated)	88.9
Cc1[nH]c2ccc(O)cc2c1CCN	87

[in] What vessel count % control appears in the records for this molecule with in vivo angiogenesis, blood vessel count? OC(CN1CCN(c2cccc(Cl)c2)CC1)C(c1ccccc1)c1ccccc1 (configuration not stated)
[out] 67.8

[in] What vessel count % control appears in the records for this molecule with in vivo angiogenesis, blood vessel count? CN1Cc2c(N)cccc2C(c2ccccc2)C1 (configuration not stated)
[out] 112

[in] What vessel count % control appears in the records for this molecule with in vivo angiogenesis, blood vessel count? Nc1nc(N)c2nc(CNc3ccc(C(=O)NC(CCC(=O)O)C(=O)O)cc3)cnc2n1 (configuration not stated)
[out] 99.6
